Would you mind telling me the reported hERG current change (%, negative = inhibition) at 10uM of each entry?
- Target under test: human ether-à-go-go-related gene (hERG) potassium channel (human, UniProt Q12809);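 note: peak tail current of the secondary pulse compared with the same well before compound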
- Sequence (Q12809 whole entry, looked up): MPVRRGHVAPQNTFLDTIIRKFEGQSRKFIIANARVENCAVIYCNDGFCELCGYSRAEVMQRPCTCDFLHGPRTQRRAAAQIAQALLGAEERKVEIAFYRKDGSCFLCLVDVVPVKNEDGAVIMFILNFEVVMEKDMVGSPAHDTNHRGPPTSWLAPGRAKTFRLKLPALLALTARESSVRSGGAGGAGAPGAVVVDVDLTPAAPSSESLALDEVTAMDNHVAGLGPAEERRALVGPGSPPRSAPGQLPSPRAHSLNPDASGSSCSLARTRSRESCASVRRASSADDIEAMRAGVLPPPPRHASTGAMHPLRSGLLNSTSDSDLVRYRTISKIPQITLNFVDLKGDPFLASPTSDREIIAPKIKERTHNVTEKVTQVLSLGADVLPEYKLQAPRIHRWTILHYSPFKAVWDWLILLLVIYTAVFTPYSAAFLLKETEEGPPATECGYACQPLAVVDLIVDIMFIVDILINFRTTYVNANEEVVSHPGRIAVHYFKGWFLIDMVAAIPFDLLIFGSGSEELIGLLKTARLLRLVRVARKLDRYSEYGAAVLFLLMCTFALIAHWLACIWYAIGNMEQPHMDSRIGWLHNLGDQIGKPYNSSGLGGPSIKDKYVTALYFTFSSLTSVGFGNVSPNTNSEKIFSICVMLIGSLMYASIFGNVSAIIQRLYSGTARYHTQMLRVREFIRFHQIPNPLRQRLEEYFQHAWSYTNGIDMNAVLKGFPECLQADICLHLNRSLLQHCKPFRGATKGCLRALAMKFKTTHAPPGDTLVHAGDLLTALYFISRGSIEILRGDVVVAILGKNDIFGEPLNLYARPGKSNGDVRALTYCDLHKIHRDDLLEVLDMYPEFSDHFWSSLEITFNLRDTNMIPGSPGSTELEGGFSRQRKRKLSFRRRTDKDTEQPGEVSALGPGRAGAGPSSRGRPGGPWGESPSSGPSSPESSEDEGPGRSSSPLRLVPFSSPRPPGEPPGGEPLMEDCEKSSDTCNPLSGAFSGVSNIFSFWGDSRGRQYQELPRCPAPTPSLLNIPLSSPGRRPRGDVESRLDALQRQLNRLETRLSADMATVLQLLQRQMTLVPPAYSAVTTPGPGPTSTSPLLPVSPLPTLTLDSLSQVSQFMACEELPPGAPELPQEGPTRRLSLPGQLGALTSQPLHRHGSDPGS
- Assay name: primary screen, population patch clamp on CHO cells stably expressing hERG; higher = less effect of the substance
Hit rate of the full screen: of about 310,000 compounds, about 14,000 (4.5%) showed an effect of 50% or more. Effects have a minus sign here. What follows is part of a selection rich in strong results, with near analogues and random picks from the rest.
Numbers only, in %.

CCN1CCN(CC(=O)Nc2nc3ccc(C)cc3s2)CC1 ... -34.5
O=C(CN1CCOc2ccccc21)NCc1cccs1 ... 8.26
CCN(CC)S(=O)(=O)c1cc(C(=O)O)ccc1Cl ... 11
O=C1c2ccccc2S(=O)(=O)c2cc(C(=O)N3CCCC3)ccc21 ... -1.93
CCSc1nc2c(c(=O)n1-c1ccc(F)cc1)SCC2 ... -4.12
COCCCN1C(=O)c2ccc(C(=O)O)cc2C1=O ... -0.568
Cn1c(SCC(=O)N/N=C/c2ccc(O)c(O)c2)nc2ccccc21 ... 4.68
COc1ccc(NC(=O)COC(=O)CN2C(=O)NC(C)(C)C2=O)cc1 ... 2.55

Quick batch: hERG current change (%, negative = inhibition) at 10uM for everything below.
1. COc1cc(OC)nc(NC(=S)NC(=O)c2ccccc2)n1
2. NC(=S)N=Nc1c(O)n(CCCl)c2ccc(Cl)cc12
3. CCC(CC)C(=O)N1CCN(c2ccccc2)CC1
4. O=C(COC(=O)CCNS(=O)(=O)c1ccc2c(c1)OCCO2)NC1CCCc2ccccc21 (stereo not drawn)
5. C/C(=N\Nc1ccccn1)c1ccc(C(C)C)cc1
6. C/C(=N\Nc1ncc(Cl)cc1Cl)c1ccc(OC(F)F)cc1

[23.1, 9.1, -2.08, -0.954, 23.7, -50.2]

Quick batch: hERG current change (%, negative = inhibition) at 10uM for everything below.
1. Cc1sc2nc(CN3CCOCC3)nc(N3CCOCC3)c2c1C.O=C(O)C(=O)O
2. NS(=O)(=O)c1cccc(NC(=O)c2cccnc2Oc2ccccc2)c1
3. O=c1c(Cl)c(N2CCN(S(=O)(=O)c3ccc(F)cc3)CC2)cnn1-c1cccc(Cl)c1

1: -10.8; 2: 12.7; 3: -29.4

Quick batch: hERG current change (%, negative = inhibition) at 10uM for everything below.
1. Cc1ccc(S(=O)(=O)Nc2nc(CN3CCOCC3)nc3sc(C)c(C)c23)cc1
2. O=C1CSC(c2ccc([N+](=O)[O-])cc2)N1C1CCCCC1 (stereo not drawn)
3. CC(COc1ccc(/C=C/c2ccccc2)cc1)[N+](C)(C)C.[I-] (stereo not drawn)
4. O=C(c1cccc2ccccc12)N1CCN(c2ccccc2F)CC1

1: -43; 2: -47.4; 3: -9.04; 4: -9.72
